Target: T1, biotinylated recombinant human IL-12Rβ2 (produced in-house) (human, UniProt Q99665 24-622, random biotinylated)
T1 construct: also called hIL-12RB2; hIL12RB2
T1 sequence: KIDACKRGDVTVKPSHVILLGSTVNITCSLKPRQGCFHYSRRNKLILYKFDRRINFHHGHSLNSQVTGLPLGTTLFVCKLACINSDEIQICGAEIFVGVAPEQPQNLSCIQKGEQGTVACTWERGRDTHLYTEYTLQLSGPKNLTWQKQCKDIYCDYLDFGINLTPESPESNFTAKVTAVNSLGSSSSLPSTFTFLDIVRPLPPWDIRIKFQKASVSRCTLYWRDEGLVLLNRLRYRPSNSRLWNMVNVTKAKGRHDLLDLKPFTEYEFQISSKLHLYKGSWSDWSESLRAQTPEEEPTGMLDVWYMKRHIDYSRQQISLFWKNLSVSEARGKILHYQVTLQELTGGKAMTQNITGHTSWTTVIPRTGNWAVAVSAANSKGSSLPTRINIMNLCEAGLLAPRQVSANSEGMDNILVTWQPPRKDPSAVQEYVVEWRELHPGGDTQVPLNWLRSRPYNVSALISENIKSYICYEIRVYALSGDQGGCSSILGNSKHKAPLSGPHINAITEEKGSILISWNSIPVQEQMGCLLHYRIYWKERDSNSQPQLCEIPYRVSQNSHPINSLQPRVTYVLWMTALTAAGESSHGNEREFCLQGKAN
Assay: ELISA, P.E. VHH on biotinylated hIL-12RB2

| BINDER | binding result |
| --- | --- |
| anti-IL-12Rβ2 VHH clone 3CAM57 (VHH, not shown: small tags and cut ends, tested as periplasmic extract; also called 20512; 3CAMS7) VHH: QVQLQESGGGLVQAGGSLRLSCTPSGRTFSTLAMGWFRQAPGKEREVVATISWSGGRTYYASSVKSRFTISRDNAKNTAYLQMNSLRPDDTAVYYCAARGTDYGAYDYWGQGTQVTVSS | no binding |
| anti-IL-12Rβ2 VHH clone 3CAM1 (VHH, not shown: small tags and cut ends, tested as periplasmic extract) VHH: QVQLQESGGGLVQAGGSLRLSCAASGRTFGSHRMGWFRQAPGQEREFVAAIAWRGGTQYYTDSVKGRFTISRDNANNTVYLQMNSLKPEDAAVYYCVAGEGSSWGDITDPRRYVFWGQGTQVTVSS | no binding |
| anti-IL-12Rβ2 VHH clone 2CAMS52 (VHH, not shown: small tags and cut ends, tested as periplasmic extract; also called 20535; 2CAMSSZ) VHH: QVQLQESGGGLVQPGASLRLSCATSGPTLSTYAMGWFRQAPGKEREVVATISWSGGRVTYVDSVKGRFTISRDNAKNTAYLQMNRLRPDDTAVYTCAARESDYGAYDYWGQGTQVTVSS | no binding |
| anti-IL-12Rβ2 VHH clone 3CAM65 (VHH, not shown: small tags and cut ends, tested as periplasmic extract; also called 20513) VHH: QVQLQESGGGLVQAGGSLRLSCAPSGRTFTTYVMGWFRQAPGKEREFVAHISWSGGRTYYADSVKGRFTISRDNAKNTSYLQMNSLKPEDTAVYYCAAARSDAVRIGYAEGYEYWGQGTQVTVSS | no binding |
